Test: NCI Yeast Anticancer Drug Screen. Data for the bub3 strain (AID 167)
Settings: S. cerevisiae bub3 mutant strain, at 50.0 µM, hits give high values
About 79,000 compounds went through this panel and 15% of them were active in at least one assay; those are over-represented in the sample as a whole.
Measured growth inhibition, listed per entry for reference.
Write it as a number; the unit % goes unstated.

# example entries with known answers
Sure, the documented growth inhibition for `N#C/C(=C\NC(=S)C(N)=S)C(=O)c1ccc2ccccc2c1` is 24.3

`N#C/C(=C\c1cc(F)cc(F)c1)c1ccccn1` has a reported growth inhibition of 3.2

Per the records, this compound ( COc1cc(C2C3=C(CCC3=O)Oc3cc4c(cc32)OCO4)cc(OC)c1OC (configuration not stated) ) has growth inhibition equal to -4.55

New cases:
Noted for CC(C)Oc1ccc(N2C(=O)C(C)CNC2=S)cc1 (configuration not stated) : its growth inhibition reads 6.4

Input `C(=N/n1nnc(-c2ccccc2)n1)/c1ccccc1` . Output growth inhibition: -5.3

Recorded growth inhibition (compound `Cc1ccc(S(=O)(=O)CCN2CCOCC2)cc1` ): 5.85

Item: `Cc1cc(Cl)ccc1C(=O)O` | growth inhibition: -12.8

###

Experiment: NCI Yeast Anticancer Drug Screen. Data for the mlh1 rad18 strain (AID 175)
Details: S. cerevisiae mlh1 rad18 strain growth inhibition; at 50.0 µM; hits give high values
Procedure: Growth inhibition of yeast strains with defined genetic alterations is measured as a screen for potential anti-cancer activity. Selected strains with alterations in DNA damage repair or cell cycle control were exposed to compounds and growth inhibition was measured relative to vehicle treated controls. The strain used in this assay is mlh1 rad18
The panel holds about 79,000 compounds, 15% with a hit somewhere; the sample as a whole holds those more often. Activity calls are given as the source filed them. Rule as the data show it: active = growth inhibition above about 70%; inactive = the rest.
observable: growth inhibition

Per the records, this compound ( `CCCNc1nnnn1CCC` ) has growth inhibition equal to -0.05% (inactive)

Item: `CSC(N)=Nc1c(C)cccc1C` | growth inhibition: -16.7% (inactive)

growth inhibition reported for this compound `O=C1c2ccccc2C(=O)N1CNc1cccc(NCN2C(=O)c3ccccc3C2=O)c1` : -2.15% (inactive)

Measured growth inhibition, `CCCC(=O)Nc1ccccc1` : 19.6% (inactive)

Entry CN(C)C=Nc1ccn(C2CC(F)C(CO)O2)c(=O)n1 (stereo unspecified) ; growth inhibition = 13% (inactive)

Here is another compound to look at.
Kindly note the recorded growth inhibition for `COc1cc2c[n+](C)c(-c3ccc(Cl)c(Cl)c3)c(OC)c2cc1OC` , which is 41.5% (inactive)

###

Test: NCI Yeast Anticancer Drug Screen. Data for the sgs1 mgt1 strain (AID 161);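 further: 0% = growth of cultures given vehicle only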
Conditions: S. cerevisiae sgs1 mgt1 strain, at 50.0 µM, hits give high values
Compounds without any hit were thinned out: in the full panel of roughly 79,000, 15% have a hit.
observable: growth inhibition (%)
Numeric only. Scale: %

The molecule listed as `Cc1ccc(/[N+]([O-])=N/N2C(=O)c3ccccc3C2=O)cc1` shows growth inhibition equal to -10.1

Continuing:
So for CC(C)CCCC(C)C1CCC2C3C(=O)C=C4CC(OC(=O)CCC(C)C)CCC4(C)C3CCC12C (stereo not drawn) , the logged growth inhibition turned out to be 25.3

Consider `CCCCNc1ccc2c(C)cc(=O)oc2c1` . Its measured growth inhibition is -16.9

GET /value?item= `Nc1ccc(S(=O)(=O)CCO)cc1` &field=growth inhibition returns 4.65

// growth inhibition value for COC(=O)C(NC(=O)C(=O)NC(C(=O)OC)C(C)(C)S)C(C)(C)S (stereo not drawn) : -2.3

// growth inhibition value for `COc1ccc(Br)c(CN2CCc3ccccc32)c1OS(=O)(=O)c1ccc(C)cc1` : 18.7

Reported growth inhibition for `O=S(=O)(c1ccccc1)N1CCN(S(=O)(=O)c2ccccc2)c2ccccc21` was -3.75

For `CCCN1C(=O)CN(S(=O)(=O)c2ccc(Cl)cc2)C1=O` the molecule record lists growth inhibition as 3.6

So, O=C(O)C(=O)O.[Co+3].[NH-]C(Cc1ccccc1)C(=O)[O-].[NH-]CCN(CC[NH-])CC[NH-] (stereo not drawn) ? Its growth inhibition was 8.8

So, `Cc1cc(C)c(NC(=O)Nc2ccc(C(Cl)(Cl)Cl)cc2)c(C)c1` ? Its growth inhibition was 8.8

Measured growth inhibition, `CC(C)C(O)(C(=O)O)C(C)C` : -4.1

The molecule listed as O=C1c2ccccc2C(C2c3ccccc3C(=O)c3cc(Br)ccc32)c2ccc(Br)cc21 (stereo not drawn) has a reported growth inhibition of -9.5

Lab note: N#CC1CNC(=S)N=C1c1ccccc1 (stereo not drawn) gave growth inhibition of 17.9

For reference, reported growth inhibition for `Cc1ccc2c(O)c3c(cc2c1O)C(=O)c1ccccc1C3=O` stands at 20.4

Recorded growth inhibition (molecule `O=[N+]([O-])c1cccc(SNSc2cccc([N+](=O)[O-])c2)c1` ): 8.4
